src = patent US20140301947A1

experimental-target: UniProt:P30536
assay-method-text: Competition binding assay with [3H]PK11195 and unlabelled vinpocetine in human brain membranes
Set-up: Ki MAB; Vinpocetine Ki, MAB
measurement-setup: A/T subjects, mixed affinity binder, human brain, mean (SEM); listed as vinpocetine; read-out: Vinpocetine Ki, MAB
observation-type: pKi
Give bare numbers, as −log10 of the molar value.

Challenge: Give UniProt:P30536 pKi for CCOC(=O)C1=C[C@]2(CC)CCCN3CCc4c(n1c1ccccc41)[C@@H]32 [Vinpocetine, ethyl apovincaminate]
Response given: 6.48

====

experimental-target: TSPO (Homo sapiens, UniProt P30536)
assay-method-text: Competition radioligand binding assay with [3H]PK11195 and unlabelled GE1 in HABs and LABs
Parameters: from tissue; host or cells: human brain (membrane preparation, by the cited method)
measurement-setup: 6 LABs, racemate; read-out: Ki, mean of LABs
Sequence (P30536 2-169): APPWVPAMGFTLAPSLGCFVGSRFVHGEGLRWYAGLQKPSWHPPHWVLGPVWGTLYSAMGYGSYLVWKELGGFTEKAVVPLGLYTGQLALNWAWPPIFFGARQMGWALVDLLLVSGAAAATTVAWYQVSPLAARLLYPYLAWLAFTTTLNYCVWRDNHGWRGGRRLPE
observation-type: Ki (nM)
One number for each entry, in nM.

Challenge: Data request, read-out Ki, for CCN(CC)C(=O)C1CCCC2C1c1c(OC)cccc1N2CCF (stereo not shown) [GE1]
Response given: 145
